Test system: Fer (mouse);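 also: 11-residue human phosphosite peptides and single-mutation variants displayed on the E. coli surface, counted by deep sequencing, each peptide's frequency after selection divided by its frequency in the unselected input library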;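 also: frequency after pTyr selection over input frequency; kinase dosed for 20-30% of maximal phosphorylation in three min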
procedure.details: phosphorylation enrichment, bacterial display (enrichment ratio); higher = better substrate or ligand; peptides without Tyr show the background
experimental.endpoint: phosphorylation enrichment
Answer with a number only.

The cases that follow already have their phosphorylation enrichment on record.
IIEDPYYGNDS [ACP1_Y132] : 0.632
GRSTFYWPRPR [GAGE12J_Y10_YF] : 0.463
HEKRAYICAHP [ACAD9_Y611_L606H] : 0.593
KWRGQYDVAIK [BTK_Y425] : 0.429
SGDITYGQFAQ [PLCG1_Y210] : 0.387

API: value(readout= phosphorylation enrichment, system= Fer (mouse), query= KRISCYEARYQ [PFKFB3_Y194_S197R] ) 0.4

# iterate: EVTLTYATGIK [NFKB1_Y485_T489I] 0.473

# iterate: ASTDFYKRGDF [PDHA1_Y243_YF] 0.475

# iterate: SHEELYKWFTS [DYNC1H1_Y3051] 3.4

# iterate: GINDDYGQLKN [NBN_Y679] 0.474

# iterate: RPGGRYPVARR [SHANK3_Y1569_S1566G] 0.667

# iterate: NDQANYSLNTD [ADA_Y290] 0.498

# iterate: KLFYIYTSGTT [SLC27A4_Y245] 0.556

# iterate: KLKRSYPSPDI [USP8_Y717_S718P] 0.339
